Quick reference for fold difference in affinity vs original among some binders
# experimental-system: binding partner of C5A (XPA23)
# procedure-details: Biacore K-off
Quick note: give the figure in fold, leave out the unit.

// worked examples, fold difference in affinity vs original included
# binder, fold difference in affinity vs original [fold]
measured = [
    ("C5A (XPA23) VL D28A (antibody, V domains shown) VH: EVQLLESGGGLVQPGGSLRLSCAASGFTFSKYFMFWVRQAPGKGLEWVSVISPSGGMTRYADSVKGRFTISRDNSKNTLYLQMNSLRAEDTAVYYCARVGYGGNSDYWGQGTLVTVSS VL: DIQMTQSPSSVSASVGDRLTIICRASQAINRWLAWYQQTPGNAPKLLIHSATSLQSGVPSRFSGSGSGTDFTLTINSLQPEDFATYYCQQADSFPLTFGGGTKVEIK", 0.88),
    ("C5A (XPA23) VH S30R (antibody, V domains shown) VH: EVQLLESGGGLVQPGGSLRLSCAASGFTFRKYFMFWVRQAPGKGLEWVSVISPSGGMTRYADSVKGRFTISRDNSKNTLYLQMNSLRAEDTAVYYCARVGYGGNSDYWGQGTLVTVSS VL: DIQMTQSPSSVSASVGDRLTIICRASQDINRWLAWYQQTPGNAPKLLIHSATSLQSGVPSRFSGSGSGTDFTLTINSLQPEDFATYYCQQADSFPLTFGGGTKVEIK", 0.1),
]

With those in mind, consider the next binder.
Task: Report measured fold difference in affinity vs original; entry is C5A (XPA23) VL H49F (antibody, V domains shown) VH: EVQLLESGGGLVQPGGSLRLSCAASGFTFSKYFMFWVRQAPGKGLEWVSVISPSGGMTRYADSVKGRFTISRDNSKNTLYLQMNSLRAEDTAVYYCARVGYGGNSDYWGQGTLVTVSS VL: DIQMTQSPSSVSASVGDRLTIICRASQDINRWLAWYQQTPGNAPKLLIFSATSLQSGVPSRFSGSGSGTDFTLTINSLQPEDFATYYCQQADSFPLTFGGGTKVEIK
Output: 0.5

Sourced from patent US20110118447A1
